FYI, the data here is from paper PMC12501849.

target: ZIKV MTase (Zika virus); construct: the ZIKV NS5 MTase (aa 4-278) domain were synthesized (Genscript); His6 (N); made in house; host or cells: Escherichia coli T7 Express Iq; experiment: Filter binding assay (FBA), ZIKV 2′-O-MTase activity; type: biochemical; conditions: 2′-O-MTase activity, compound at 50 μM; read-out: Percentage of inhibition of ZIKV MTase
Sequence (A0A024B7W1 2524-2798): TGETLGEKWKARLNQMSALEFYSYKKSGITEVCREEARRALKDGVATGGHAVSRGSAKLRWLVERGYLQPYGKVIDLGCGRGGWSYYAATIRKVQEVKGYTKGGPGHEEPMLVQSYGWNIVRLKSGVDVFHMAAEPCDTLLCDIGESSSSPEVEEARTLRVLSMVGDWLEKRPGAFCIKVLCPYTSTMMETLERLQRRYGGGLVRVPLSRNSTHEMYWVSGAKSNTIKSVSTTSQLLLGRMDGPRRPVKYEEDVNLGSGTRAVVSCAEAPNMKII
METRIC: inhibition at 50 µM (%)
Express your answer in %, writing the number without its unit.

Fill in the blank: the reported inhibition at 50 µM of "Cc1ncnc2c1ccn2-c1cccc(N(CC[C@H](NC(=O)OC(C)(C)C)C(N)=O)CCC(C)(C)C)c1" is ____.
11.1

Fill in the blank: the reported inhibition at 50 µM of "Nc1ncnc2c1ncn2[C@@H]1O[C@H](C[C@@H](N)CC[C@H](N)C(=O)O)[C@@H](O)[C@H]1O" is ____.
97.9

Fill in the blank: the reported inhibition at 50 µM of "COc1ccc(NC(=O)C[C@H](N)C(=O)OC(C)(C)C)cc1-n1cnc2c(N)ncnc21" is ____.
0

* * *

test: Cytotoxicity in non-infected VeroE6 cells; type: cell-based, African green monkey; conditions: African green monkey, non-infected, 50% cytotoxic concentration
Parameter CC50: see the listing below.

Known CC50 results, listed for orientation:
{"COMPOUND": "Cc1ncnc2c1ccn2-c1cccc(N(CC[C@H](N)C(N)=O)CCC(C)(C)C)c1 [Compound 18]", "CC50": "66.2 µM"}
{"COMPOUND": "Cc1ncnc2c1ccn2-c1cccc(NC(=O)C[C@H](N)C(=O)O)c1 [Compound 21]", "CC50": "> 100 µM"}

Fill in the blank: the reported CC50 of Nc1ncnc2c1ncn2-c1cccc(NC(=O)C[C@H](N)C(=O)O)c1 [Compound 31] is ____.
> 100 µM

* * *

target: DENV3 MTase (Dengue virus type 3); construct: the MTase activity is located at the N-terminal of the viral NS5 protein; made in house; experiment: Filter binding assay (FBA), DENV3 2′-O-MTase activity; format: biochemical; conditions: tested at 50 μM
Sequence (P27915 2492-2753): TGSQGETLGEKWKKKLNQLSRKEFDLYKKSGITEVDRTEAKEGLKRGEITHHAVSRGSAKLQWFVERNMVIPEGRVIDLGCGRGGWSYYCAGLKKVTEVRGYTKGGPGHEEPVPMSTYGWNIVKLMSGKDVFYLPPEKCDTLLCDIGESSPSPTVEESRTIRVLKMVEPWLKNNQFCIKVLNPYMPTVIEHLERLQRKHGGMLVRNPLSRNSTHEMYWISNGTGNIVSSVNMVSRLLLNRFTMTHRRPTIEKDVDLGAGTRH
METRIC: Effect on 2′-O-MTase activity of DENV3 (in words)

Known Effect on 2′-O-MTase activity of DENV3 (in words) results, listed for orientation:
{"CHEMICAL SMILES": "Cc1ncnc2c1ccn2-c1cccc(N(CC[C@H](NC(=O)OC(C)(C)C)C(N)=O)CCC(C)(C)C)c1", "VALUE REPORTED": "modest inhibition"}
{"CHEMICAL SMILES": "COc1ccc(NC(=O)C[C@H](N)C(=O)O)cc1-n1cnc2c(N)ncnc21", "VALUE REPORTED": "no effect"}
{"CHEMICAL SMILES": "CC(C)(C)OC(=O)[C@@H](N)CC(=O)Nc1cccc(-n2cnc3c(N)ncnc32)c1", "VALUE REPORTED": "some inhibition"}
{"CHEMICAL SMILES": "Cc1ncnc2c1ccn2-c1cccc(NC(=O)C[C@H](N)C(=O)O)c1", "VALUE REPORTED": "no effect"}
{"CHEMICAL SMILES": "Cc1ncnc2c1ccn2-c1cccc(N(CC[C@H](N)C(=O)O)CCC(C)(C)C)c1", "VALUE REPORTED": "no effect"}

Find the measured Effect on 2′-O-MTase activity of DENV3 (in words): item "COc1ccc(NC(=O)C[C@H](N)C(=O)OC(C)(C)C)cc1-n1cnc2c(N)ncnc21" , target or system DENV3 MTase (Dengue virus type 3).
no effect

Find the measured Effect on 2′-O-MTase activity of DENV3 (in words): item "Cc1ncnc2c1ccn2-c1cccc(N(CC[C@H](N)C(N)=O)CCC(C)(C)C)c1" , target or system DENV3 MTase (Dengue virus type 3).
modest inhibition

Find the measured Effect on 2′-O-MTase activity of DENV3 (in words): item "CC(C)(C)CCN(CC[C@H](N)C(=O)O)c1cccc(-n2cnc3c(N)ncnc32)c1" , target or system DENV3 MTase (Dengue virus type 3).
no effect

Find the measured Effect on 2′-O-MTase activity of DENV3 (in words): item "Cc1ncnc2c1ccn2-c1cccc(NC(=O)C[C@H](N)C(=O)OC(C)(C)C)c1" , target or system DENV3 MTase (Dengue virus type 3).
no effect

Find the measured Effect on 2′-O-MTase activity of DENV3 (in words): item "Nc1ncnc2c1ncn2-c1cccc(NC(=O)C[C@H](N)C(=O)O)c1" , target or system DENV3 MTase (Dengue virus type 3).
some inhibition

* * *

assay: Cytotoxicity in non-infected SH-SY5Y cells; assay type: cell-based; settings: human, SH-SY5Y neuroblastoma cells, 50% cytotoxic concentration
METRIC: CC50 at 7 days

Known CC50 at 7 days results, listed for orientation:
{"MOLECULE": "CC(C)(C)CCN(CC[C@H](N)C(=O)O)c1cccc(-n2cnc3c(N)ncnc32)c1", "CC50 at 7 days": "> 100 µM"}
{"MOLECULE": "Nc1ncnc2c1ncn2-c1cccc(NC(=O)C[C@H](N)C(=O)O)c1", "CC50 at 7 days": "> 100 µM"}
{"MOLECULE": "Cc1ncnc2c1ccn2-c1cccc(NC(=O)C[C@H](N)C(=O)O)c1", "CC50 at 7 days": "> 100 µM"}
{"MOLECULE": "Cc1ncnc2c1ccn2-c1cccc(N(CC[C@H](NC(=O)OC(C)(C)C)C(N)=O)CCC(C)(C)C)c1", "CC50 at 7 days": "7 µM"}

Fill in the blank: the reported CC50 at 7 days of "COc1ccc(NC(=O)C[C@H](N)C(=O)O)cc1-n1cnc2c(N)ncnc21" is ____.
> 100 µM

Fill in the blank: the reported CC50 at 7 days of "Cc1ncnc2c1ccn2-c1cccc(N(CC[C@H](N)C(=O)O)CCC(C)(C)C)c1" is ____.
> 100 µM

Fill in the blank: the reported CC50 at 7 days of "CC(C)(C)OC(=O)[C@@H](N)CC(=O)Nc1cccc(-n2cnc3c(N)ncnc32)c1" is ____.
> 100 µM

Fill in the blank: the reported CC50 at 7 days of C[C@@]1(O)[C@H](O)[C@@H](CO)O[C@H]1n1ccc2c(N)ncnc21 [Compound 7DMA, 7-Deaza-2′-C-methyladenosine, reference compound] is ____.
> 50 µM

* * *

assay: Cytotoxicity in non-infected SH-SY5Y cells; type: cell-based; settings: human, SH-SY5Y neuroblastoma cells, 50% cytotoxic concentration
METRIC: CC50 at 7 days

Known CC50 at 7 days results, listed for orientation:
{"MOLECULE": "Cc1ncnc2c1ccn2-c1cccc(NC(=O)C[C@H](N)C(=O)OC(C)(C)C)c1 [Compound 20]", "VALUE REPORTED": "> 100 µM"}
{"MOLECULE": "COc1ccc(NC(=O)C[C@H](N)C(=O)OC(C)(C)C)cc1-n1cnc2c(N)ncnc21 [Compound 30]", "VALUE REPORTED": "> 100 µM"}

Fill in the blank: the reported CC50 at 7 days of Cc1ncnc2c1ccn2-c1cccc(N(CC[C@H](N)C(N)=O)CCC(C)(C)C)c1 [Compound 18] is ____.
61 µM

* * *

Parameter inhibition at 50 µM: see the listing below.
molecular target: DENV3 MTase (Dengue virus type 3); construct: the MTase activity is located at the N-terminal of the viral NS5 protein; made in house; assay: Filter binding assay (FBA), DENV3 2′-O-MTase activity; assay type: biochemical; conditions: 2′-O-MTase activity, compound at 50 μM; read-out: Percentage of inhibition of DENV3 MTase
Express your answer in %, writing the number without its unit.

{"CHEMICAL SMILES": "Cc1ncnc2c1ccn2-c1cccc(NC(=O)C[C@H](N)C(=O)O)c1", "inhibition at 50 µM, %": 0}
{"CHEMICAL SMILES": "CC(C)(C)CCN(CC[C@H](N)C(=O)O)c1cccc(-n2cnc3c(N)ncnc32)c1", "inhibition at 50 µM, %": 0}
{"CHEMICAL SMILES": "Cc1ncnc2c1ccn2-c1cccc(N(CC[C@H](N)C(=O)O)CCC(C)(C)C)c1", "inhibition at 50 µM, %": 0}
{"CHEMICAL SMILES": "Cc1ncnc2c1ccn2-c1cccc(NC(=O)C[C@H](N)C(=O)OC(C)(C)C)c1", "inhibition at 50 µM, %": 0}
{"CHEMICAL SMILES": "Cc1ncnc2c1ccn2-c1cccc(N(CC[C@H](N)C(N)=O)CCC(C)(C)C)c1", "inhibition at 50 µM, %": 10.1}

# next compound below
Fill in the blank: the reported inhibition at 50 µM of "Cc1ncnc2c1ccn2-c1cccc(N(CC[C@H](NC(=O)OC(C)(C)C)C(N)=O)CCC(C)(C)C)c1" is ____.
7.2

* * *

Parameter inhibition at 50 µM: see the listing below.
biological target: DENV3 MTase (Dengue virus type 3); construct: the MTase activity is located at the N-terminal of the viral NS5 protein; made in house; assay: Filter binding assay (FBA), DENV3 2′-O-MTase activity; type: biochemical; details: 2′-O-MTase activity, compound at 50 μM; read-out: Percentage of inhibition of DENV3 MTase
Express your answer in %, writing the number without its unit.

Known inhibition at 50 µM results, listed for orientation:
{"COMPOUND": "COc1ccc(NC(=O)C[C@H](N)C(=O)O)cc1-n1cnc2c(N)ncnc21 [Compound 32]", "SYSTEM UNDER TEST": "DENV3 MTase (Dengue virus type 3)", "inhibition at 50 µM (%)": 0}
{"COMPOUND": "COc1ccc(NC(=O)C[C@H](N)C(=O)OC(C)(C)C)cc1-n1cnc2c(N)ncnc21 [Compound 30]", "SYSTEM UNDER TEST": "DENV3 MTase (Dengue virus type 3)", "inhibition at 50 µM (%)": 0}

Fill in the blank: the reported inhibition at 50 µM of Nc1ncnc2c1ncn2[C@@H]1O[C@H](C[C@@H](N)CC[C@H](N)C(=O)O)[C@@H](O)[C@H]1O [Sinefungin] is ____.
96.8
